Target: Prostaglandin F2-alpha receptor (Mus musculus) (UniProt P43117)
Sequence (P43117 whole entry, looked up): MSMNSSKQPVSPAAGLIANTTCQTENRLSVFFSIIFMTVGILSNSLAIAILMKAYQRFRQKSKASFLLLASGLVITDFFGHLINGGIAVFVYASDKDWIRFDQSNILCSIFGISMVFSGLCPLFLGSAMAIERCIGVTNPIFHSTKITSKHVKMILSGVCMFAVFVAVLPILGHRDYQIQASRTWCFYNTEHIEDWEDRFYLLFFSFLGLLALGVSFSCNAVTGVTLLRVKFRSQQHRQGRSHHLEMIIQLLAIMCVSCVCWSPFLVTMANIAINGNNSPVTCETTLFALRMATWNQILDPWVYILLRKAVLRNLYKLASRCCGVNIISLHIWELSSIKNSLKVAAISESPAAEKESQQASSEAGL
Experiment: Efficacy for stimulation of prostanoid FP receptor-linked phosphoinositide turnover in Swiss 3T3 mouse fibroblast cells
What pEC50 was measured for each of the following?
One number for each entry, as −log10 of the molar value.

Molecule	Reported Value
CC(C)OC(=O)CCC/C=C/C[C@@H]1[C@@H](/C=C/C(O)COc2cccc(C(F)(F)F)c2)[C@H](O)C[C@@H]1O (stereo partly drawn)	8.57
O=C(O)CCCC/C=C\C[C@H]1[C@@H](O)CO[C@@H]1/C=C/[C@@H](O)COc1cccc(C(F)(F)F)c1	6.73
O=C(O)CC/C=C\CCC[C@H]1[C@@H](O)CO[C@@H]1/C=C/[C@@H](O)COc1ccccc1	7.24
O=C(O)CCCC/C=C\C[C@H]1[C@@H](O)CO[C@@H]1/C=C/[C@H](O)COc1ccccc1	6.24
O=C(O)CC/C=C\CCC[C@H]1[C@@H](O)CO[C@@H]1/C=C/[C@H](O)COc1cccc(C(F)(F)F)c1	6.11

List pEC50 for every entry below, keeping the order given.
1. O=C(O)CC/C=C\CCC[C@H]1[C@@H](O)CO[C@@H]1/C=C/[C@H](O)COc1ccccc1
2. O=C(O)CC/C=C\CCC[C@H]1[C@@H](O)CO[C@@H]1/C=C/[C@@H](O)COc1cccc(C(F)(F)F)c1
3. O=C(O)CC/C=C\CCC[C@H]1[C@@H](O)CO[C@@H]1/C=C/[C@@H](O)COc1cccc(Cl)c1

[6.60, 7.17, 7.64]

* * *

Biological target: Prostaglandin F2-alpha receptor (Mus musculus) (UniProt P43117)
Assay: Efficacy for stimulation of prostanoid FP receptor-linked phosphoinositide turnover in Swiss 3T3 mouse fibroblast cells
I'd appreciate it if you could supply EC50 values for the items below.
Numbers only, in µM.

Worked cases, EC50 given:
Smi	Observation Type	Reported Value
O=C(O)CCCC/C=C\C[C@H]1[C@@H](O)CO[C@@H]1/C=C/[C@H](O)COc1cccc(C(F)(F)F)c1	EC50	0.899
O=C(O)CCCC/C=C\C[C@H]1[C@@H](O)CO[C@@H]1/C=C/[C@H](O)COc1cccc(Cl)c1	EC50	0.194

Provide each entry's EC50 from the list below.
1. CCCCC[C@H](O)/C=C/[C@H]1OC[C@H](O)[C@@H]1C/C=C\CCCC(=O)O
2. O=C(O)CCCC/C=C\C[C@H]1[C@@H](O)CO[C@@H]1/C=C/[C@@H](O)COc1cccc(Cl)c1
3. CC(C)OC(=O)CCC/C=C/C[C@@H]1[C@@H](CC[C@@H](O)CCc2ccccc2)[C@H](O)C[C@@H]1O
4. O=C(O)CCCC/C=C\C[C@H]1[C@@H](O)CO[C@@H]1/C=C/[C@@H](O)COc1ccccc1
5. O=C(O)CC/C=C\CCC[C@H]1[C@@H](O)CO[C@@H]1/C=C/[C@H](O)COc1cccc(Cl)c1

1. 2.38
2. 0.058
3. 0.0344
4. 0.293
5. 0.249
